# targetUnderTest: T1, hK1 (human tissue kallikrein 1), recombinant (human, UniProt P06870 25-262)
# T1 construct: Expressed in P. pastoris from KLK1 cDNA and purified; enzymatically active; also called KLK1; Recombinant (Pichia) Kallikrein
# experimentDescription: SPR
experimentalEndpoint: pKd
Reminder that pKd means the negative base-10 logarithm of the concentration expressed in mol/L.

binder	pKd
M0123-E02 (Fab, V domains shown) VH: EVQLLESGGGLVQPGGSLRLSCAASGFTFSHYRMDWVRQAPGKGLEWVSGIYPSGGHTNYADSVKGRFTISRDNSKNTLYLQMNSLRAEDTAVYYCARDRGWYGADYWGQGTLVTVSS VL: AQSALTQPASVSGSPGQSITISCSGTSSDVGAYYHVSWYQQHPGKAPKLMIYDVSNRPSGVSNRFSGSKSGNTASLTISGLQAEDEADYYCSLYIGTSTPWVFGGGTKLTVLG	7.57
M0128-A06 (Fab, V domains shown) VH: EVQLLESGGGLVQPGGSLRLSCAASGFTFSHYKMNWVRQAPGKGLEWVSYIGSSGGKTGYADSVKGRFTISRDNSKNTLYLQMNSLRAEDTALYYCARVGVWYGMDVWGQGTLVTVSS VL: AQSALTQPPSLSVSAGQTATITCSPSGGGLRNKYVSWYQQRPGQSPFLVIYKDAERPSGIPERFSGSNFGNTATLTIGGTQAMDEADFYCLAWDSTTRVFGGGTKLTVLS	7.74
M0096-D03 (Fab, V domains shown) VH: EVQLLESGGGLVQPGGSLRLSCAASGFTFSHYWMVWVRQAPGKGLEWVSWIGPSGGGTVYADSVKGRFTISRDNSKNTLYLQMNSLRAEDTAVYYCARGNGGFDSWGRGTLVTVSS VL: AQSELTQPRSVSGSPGQSVTISCTGTTRDVGAYKYVSWYQQYPGKAPKLMLSDVSKRPSGVPDRFSGSKSGNTASLTISGLQSEDEADYYCCSFAGSYTWIFGGGTKVTVLG	7.55
M0093-E11 (Fab, V domains shown) VH: EVQLLESGGGLVQPGGSLRLSCAASGFTFSHYEMAWVRQAHGKGLEWVSVIYPSGGATRYADSVKGRFTISRDNSKNTLYLQMNSLRAEDTAVYYCARVAQYYGMDVWGQGTTVTVSS VL: DIQMTQSPATLSLSPGERATLSCRASQSVSSYLAWYQQKPGQAPRLLIYDASNRATGIPARFSGSGSGTDFTLTISSLEPEDFAVYYCQQRSNWLTFGGGTKVEIKR	7.49

Task: Item M0092-F08 (Fab, V domains shown) VH: EVQLLESGGGLVQPGGSLRLSCAASGFTFSHYPMIWVRQAPGKGLEWVSGIYSSGGTTKYADSVKGRFTISRDNSKNTLYLQMNSLRAEDTAVYYCARVGVWYGMDVWGQGTTVTVSS VL: DIQMTQSPATLSLSPGERATLSCGASQSVSSSYLAWYQQKPGLAPRLLIYDASSRATGIPDRFSGSGSGTDFTLTISSLQPEDFATYYCLHDYNFPFTFGPGTKVDIKR has what recorded pKd?
Output: 8.14

Task: Item M0109-A11 (Fab, V domains shown) VH: EVQLLESGGGLVQPGGSLRLSCAASGFTFSNYTMTWVRQAPGKGLEWVSVIYPSGGHTTYADSVKGRFTISRDNSKNTLYLQMNSLRAEDTAMYYCARGGRWFSLDYWGQGTLVTVSS VL: AQSELTQPASVSGSPGQSITISCTGTSSDVGGYNYLSWYQQHPGKAPKLMIYGVSNRPSGVSTRFSGSKSGNTASLTISGLQAEDEADYYCSSYTSTGTRVFGGGTRLTVLG has what recorded pKd?
Output: 8.13
